Reference source: paper PMC12951562

A collection of compounds and their measured percent of DMSO vehicle control at 10 µM
target: STAT3(N567K)-nonphosphorylated (Homo sapiens, UniProt P40763, N567K); construct: made in house; host or cells: HEK293 (transient transfection), unpurified extract, dephosphorylated by endogenous phosphatases; assay: biochemical; format: binding; details: read-out: percent of DMSO vehicle control
Sequence (P40763 whole entry N567K): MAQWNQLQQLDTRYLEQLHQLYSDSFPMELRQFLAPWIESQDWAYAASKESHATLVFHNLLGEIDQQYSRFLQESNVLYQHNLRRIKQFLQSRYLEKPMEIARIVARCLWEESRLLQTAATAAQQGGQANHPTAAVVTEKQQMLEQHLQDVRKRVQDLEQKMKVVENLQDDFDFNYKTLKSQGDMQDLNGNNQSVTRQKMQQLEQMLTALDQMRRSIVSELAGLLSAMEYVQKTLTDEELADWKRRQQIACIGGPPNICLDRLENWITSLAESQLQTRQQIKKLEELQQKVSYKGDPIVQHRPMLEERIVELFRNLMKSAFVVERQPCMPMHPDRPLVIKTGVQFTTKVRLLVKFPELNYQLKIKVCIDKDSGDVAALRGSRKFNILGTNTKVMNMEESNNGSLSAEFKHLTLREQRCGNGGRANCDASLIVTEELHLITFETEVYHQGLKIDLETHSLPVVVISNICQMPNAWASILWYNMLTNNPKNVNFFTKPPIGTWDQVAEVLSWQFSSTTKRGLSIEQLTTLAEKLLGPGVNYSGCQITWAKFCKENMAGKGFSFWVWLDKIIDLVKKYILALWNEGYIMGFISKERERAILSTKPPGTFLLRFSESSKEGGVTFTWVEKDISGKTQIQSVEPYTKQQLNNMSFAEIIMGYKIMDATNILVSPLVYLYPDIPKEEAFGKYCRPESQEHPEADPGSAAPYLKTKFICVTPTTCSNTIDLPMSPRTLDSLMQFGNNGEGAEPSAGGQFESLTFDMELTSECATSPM
Non-standard residues stand in square brackets, D forms with d. Residues, ends and D or L forms follow the SMILES beside them. *: point of attachment. pY = N[C@@H](Cc1ccc(OP(=O)(O)O)cc1)C(=O)O; Caffeoyl = O=C(/C=C/c1ccc(O)c(O)c1)*
parameterMeasured: percent of DMSO vehicle control at 10 µM (%)

CC[C@H](C)[C@H](NC(=O)[C@H](CCC(=O)O)NC(=O)[C@H](CCC(=O)O)NC(=O)[C@H](Cc1ccc(OP(=O)(O)O)cc1)NC(=O)/C=C/c1ccc(O)c(O)c1)C(=O)N[C@@H](CCC(=O)O)C(=O)O [Caffeic acid-pYEEIE] (Caffeoyl-[pY]EEIE-OH)
91
NC(=O)CC[C@H](NC(=O)[C@@H]1CC[C@@H]2CCN(C(=O)CCCCCC#Cc3cccc4c3CN(C3CCC(=O)NC3=O)C4=O)C[C@H](NC(=O)c3cc4cc(C(F)(F)P(=O)(O)O)ccc4[nH]3)C(=O)N21)C(=O)NC(c1ccccc1)c1ccccc1 (stereo partly drawn)
0.1
CC(=O)N1CC[C@H]2CC[C@@H](C(=O)N[C@@H](CCC(N)=O)C(=O)NC(c3ccccc3)c3ccccc3)N2C(=O)[C@@H](NC(=O)c2cc3cc(C(F)(F)P(=O)(O)O)ccc3[nH]2)C1
0.2
